Assignment: determine reported viability, T/C for the given compounds.
test system: MDA-MB-231 multicell spheroids, viability; experiment: Anticancer human tumor MDA-MB-231 cell line growth inhibition [PI3K]; details: second compound 0.0316 µM; first compound 0.000316 µM; hits give low values;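 further: spheroids exposed to agents for seven days before reading; percent of vehicle control luminescence with DMSO treated spheroids as 100%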

Record excerpt, results attached:
- CC(C)n1nc(-c2ccc3oc(N)nc3c2)c2c(N)ncnc21 + CC(Nc1ccc2c(c1)OCCn1cc(N3C(=O)OCC3C(F)F)nc1-2)C(N)=O: 81%
- CC(C)n1nc(-c2ccc3oc(N)nc3c2)c2c(N)ncnc21 + CC(Nc1ncnc2nc[nH]c12)c1cc2cccc(Cl)c2c(=O)n1-c1ccccc1: 94.1%
- CC(=O)c1c(C)c2cnc(Nc3ccc(N4CCNCC4)cn3)nc2n(C2CCCC2)c1=O + CC(Nc1ccc2c(c1)OCCn1cc(N3C(=O)OCC3C(F)F)nc1-2)C(N)=O: 80.1%

Please examine the following record next.
CC(=O)c1c(C)c2cnc(Nc3ccc(N4CCNCC4)cn3)nc2n(C2CCCC2)c1=O + Cc1nc(NC(=O)N2CCCC2C(N)=O)sc1-c1ccnc(C(C)(C)C(F)(F)F)c1 yielded viability, T/C of 98.2%

// provenance: PubChem BioAssay AID1963958
